- Tested on: Male Sprague-Dawley rats
- TEST_METHOD_NOTES: Test I: iron excretion induced in bile duct-cannulated rats (bile and urine iron, bathophenanthroline method)
- Type: in vivo
- SETUP_CONDITIONS: bile duct-cannulated fasted rat; dose 100 mg/kg; bile and urine collected for 24 h
Binning rule for recorded induced total iron excretion: group 1: < 200 μg Fe/kg body weight; group 2: ≥ 200 μg Fe/kg body weight and < 400 μg Fe/kg body weight; group 3: ≥ 400 μg Fe/kg body weight

[
  {
    "COMPOUND": "O=C(Cn1nc(-c2ccccc2O)nc1-c1ccccc1O)NCCOCCO",
    "TGT": "Male Sprague-Dawley rats",
    "CAT": "group 2"
  },
  {
    "COMPOUND": "O=C(Cn1nc(-c2ccccc2O)nc1-c1ccccc1O)N(CCO)CCO",
    "TGT": "Male Sprague-Dawley rats",
    "CAT": "group 2"
  },
  {
    "COMPOUND": "CN(CCO)C(=O)Cn1nc(-c2ccccc2O)nc1-c1ccccc1O",
    "TGT": "Male Sprague-Dawley rats",
    "CAT": "group 3"
  },
  {
    "COMPOUND": "CCOC(=O)Cn1nc(-c2ccccc2O)nc1-c1ccccc1O",
    "TGT": "Male Sprague-Dawley rats",
    "CAT": "group 1"
  },
  {
    "COMPOUND": "O=C(Cn1nc(-c2ccccc2O)nc1-c1ccccc1O)NCC(O)CO (stereo not drawn)",
    "TGT": "Male Sprague-Dawley rats",
    "CAT": "group 1"
  },
  {
    "COMPOUND": "O=C(Cn1nc(-c2ccccc2O)nc1-c1ccccc1O)NCCO",
    "TGT": "Male Sprague-Dawley rats",
    "CAT": "group 3"
  },
  {
    "COMPOUND": "OCCn1nc(-c2ccccc2O)nc1-c1ccccc1O",
    "TGT": "Male Sprague-Dawley rats",
    "CAT": "group 2"
  },
  {
    "COMPOUND": "CN(C)C(=O)Cn1nc(-c2ccccc2O)nc1-c1ccccc1O",
    "TGT": "Male Sprague-Dawley rats",
    "CAT": "group 2"
  },
  {
    "COMPOUND": "O=C(Cn1nc(-c2ccccc2O)nc1-c1ccccc1O)NCCN(CCO)CCO",
    "TGT": "Male Sprague-Dawley rats",
    "CAT": "group 3"
  },
  {
    "COMPOUND": "O=C(Cn1nc(-c2ccccc2O)nc1-c1ccccc1O)NC(CO)CO",
    "TGT": "Male Sprague-Dawley rats",
    "CAT": "group 1"
  },
  {
    "COMPOUND": "O=C(O)c1ccc(-n2nc(-c3ccccc3O)nc2-c2ccccc2O)cc1",
    "TGT": "Male Sprague-Dawley rats",
    "CAT": "group 3"
  },
  {
    "COMPOUND": "COCCNC(=O)Cn1nc(-c2ccccc2O)nc1-c1ccccc1O",
    "TGT": "Male Sprague-Dawley rats",
    "CAT": "group 2"
  },
  {
    "COMPOUND": "O=C(O)Cn1nc(-c2ccccc2O)nc1-c1ccccc1O",
    "TGT": "Male Sprague-Dawley rats",
    "CAT": "group 1"
  },
  {
    "COMPOUND": "O=C(Cn1nc(-c2ccccc2O)nc1-c1ccccc1O)NCCN1CCOCC1",
    "TGT": "Male Sprague-Dawley rats",
    "CAT": "group 3"
  }
]
